Source of measurements: the NIST ThermoML archive (doi:10.1007/s10765-010-0725-9)

test: wn = mass fraction of the nth substance listed; details: 303.15 K, Pendant drop shape, w1 = 0.1
We begin with a simple list: items and their reported surface tension liquid-gas.
// note: answer is a bare numeric in mN/m

[Cl-].[Na+] [sodium chloride] + O    73.42
O=S(=O)([O-])[O-].[Na+].[Na+] [sodium sulfate] + O    73.56
[Ca+2].[Cl-].[Cl-] [calcium chloride] + O    74.59

// next item, surface tension liquid-gas requested
The compound listed as [Cl-].[K+] [potassium chloride] + O has a reported surface tension liquid-gas of 71.58
